The reported measurements were obtained from PubChem BioAssay.

- assay: basal RPMI8226 viability, no added stimulus, profiling panel, cell-based, calcein-AM fluorescence, 48 h, PK04 Diversity Set (AID 1166);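 further: cells grown under basal conditions without added stimulus; test concentration not given here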
- runConditions: RPMI8226 myeloma viability, higher = more signal
Below, each entry is listed alongside its reported z-score.
Returns: the value as a bare number; no unit string appended.

# annotated cases, reported z-score shown
Return the recorded z-score value; entry: "COCCOC(=O)N1C(=O)[C@@]2(c3cc(C#CCC(C(=O)OC)C(=O)OC)ccc31)[C@H](c1ccccc1OCCO)N1[C@H](c3ccccc3)[C@H](c3ccccc3)OC(=O)[C@H]1[C@@H]2C(=O)NC[C@H](O)c1ccccc1" -3.9

Return the recorded z-score value; entry: "C=C[C@H](C)[C@@H](OC(=O)Nc1ccc(OC)cc1)c1ccc(O)c2ccccc12" -4.12

Return the recorded z-score value; entry: "CC(C)=CCN[C@H](CO)c1ccccc1" -1.9

Others:
Return the recorded z-score value; entry: "CC(C)C(=C=CC[C@H](O)c1ccc(OCCO)cc1)CCO" -2.14
